Assay: Kinetic solubility of the compound in pH 7.4 phosphate buffered saline
Type: physicochemical
Conditions: read-out: Kinetic_solubility
Quantity Name: solubility kinetic

Note solubility kinetic for the compound shown: C[Si]1(C)CCN(Cc2cc(-c3ccc(C(F)(F)F)cc3)n(-c3ccc(F)cc3)n2)CC1
53 µM

Note solubility kinetic for the compound shown: CC(C)c1ccc(-c2cc(CN3CCN(c4ccccn4)CC3)nn2C2CCCCC2)cc1
15 µM

Note solubility kinetic for the compound shown: CC(C)c1ccc(-c2cc(CN3CC[Si](C)(C)CC3)nn2C2CCCCC2)cc1
46 µM

Note solubility kinetic for the compound shown: CC(C)c1ccc(-c2cc(CN3CCOCC3)nn2C2CCC2)cc1
305 to 306 µM

Note solubility kinetic for the compound shown: C[Si]1(C)CCN(Cc2cc(-c3ccc(C(F)(F)F)cc3)n(C3CCCCC3)n2)CC1
69 µM

Note solubility kinetic for the compound shown: Cc1c(CN2CCOCC2)cc(-c2ccc(C(C)C)cc2)n1-c1ccc(F)cc1
< 1 µM

----------
Provide the reported solubility at 4 h of each item.
Experiment: Solubility of the compound in FASSIF at 1 mg incubated for 4 hrs by UPLC-MS analysis
Assay type: physicochemical
Answer with a number only, understood to be in µg/mL.

Note solubility at 4 h for the compound shown: CC(C)c1ccc(-c2cc(CN3CCOCC3)nn2C2CCCCC2)cc1
100

Note solubility at 4 h for the compound shown: CC(C)c1ccc(-c2cc(CN3CCOCC3)nn2C2CCC2)cc1
139

Note solubility at 4 h for the compound shown: Cc1c(CN2CCOCC2)cc(-c2ccc(C(C)C)cc2)n1-c1ccc(F)cc1
5

----------
Test: Kinetic solubility of the compound in pH 7.4 phosphate buffered saline
Assay type: physicochemical
Settings: read-out: Kinetic_solubility
Classify by measured solubility kinetic: T if it is equal to or exceeds 200 µM, F if it is smaller.

In plain terms: is recorded solubility kinetic at least 200 µM for CC(C)c1ccc(-c2cc(CN3CCOCC3)nn2C2CCCCC2)cc1 ?
F

In plain terms: is recorded solubility kinetic at least 200 µM for CC(C)c1ccc(-c2cc(CN3CC[Si](C)(C)CC3)nn2-c2ccc(F)cc2)cc1 ?
F

In plain terms: is recorded solubility kinetic at least 200 µM for COC1CCN(Cc2cc(-c3ccc(C(F)(F)F)cc3)n(-c3ccc(F)cc3)n2)CC1 ?
T

In plain terms: is recorded solubility kinetic at least 200 µM for COC1CCN(Cc2cc(-c3ccc(C(C)C)cc3)n(-c3ccc(F)cc3)n2)CC1 ?
F

In plain terms: is recorded solubility kinetic at least 200 µM for CC(C)c1ccc(-c2cc(CN3CCN(c4ccccn4)CC3)nn2-c2ccc(F)cc2)cc1 ?
F

----------
Assay: Cytotoxicity against human HepG2 cells incubated for 48 hrs by CellTiter Glo assay
Assay type: cell-based
Quantity Name: CC50 at 48 h
State the value, then name its unit.

Note CC50 at 48 h for the molecule shown: COC1CCN(Cc2cc(-c3ccc(C(F)(F)F)cc3)n(C3CCCCC3)n2)CC1
31.6 µM

Note CC50 at 48 h for the molecule shown: CC(C)c1ccc(-c2cc(CN3CCN(C(=O)OC(C)(C)C)CC3)nn2-c2ccc(F)cc2)cc1
80 µM

Note CC50 at 48 h for the molecule shown: Fc1ccc(-n2nc(CN3CCOCC3)cc2-c2ccc(C(F)(F)F)cc2)cc1
100 µM

Note CC50 at 48 h for the molecule shown: FC(F)(F)c1ccc(-c2cc(CN3CCSCC3)nn2C2CCCCC2)cc1
63.1 µM

Note CC50 at 48 h for the molecule shown: CC(C)c1ccc(-c2cc(CN3CCOCC3)nn2C(C)C)cc1
79.4 µM

Note CC50 at 48 h for the molecule shown: CC(C)c1ccc(-c2cc(CN3CCN(c4ccccn4)CC3)nn2-c2ccc(F)cc2)cc1
64 µM

Note CC50 at 48 h for the molecule shown: CC(C)c1ccc(-c2cc(CN3CCOCC3)nn2-c2ccc(F)cc2)cc1
50.1 µM

Note CC50 at 48 h for the molecule shown: Fc1ccc(-n2nc(CN3CCN(c4ccccn4)CC3)cc2-c2ccc(C(F)(F)F)cc2)cc1
32 µM

Note CC50 at 48 h for the molecule shown: CC(C)c1ccc(-c2cc(CN3CCN(C)CC3)nn2C2CCCCC2)cc1
10 µM

Note CC50 at 48 h for the molecule shown: CC(C)c1ccc(-c2cc(CN3CCCC(O)C3)nn2-c2ccc(F)cc2)cc1 (stereo not given)
25.1 µM

----------
Assay: Chromatographic lipophilicity, log D of compound in PBS ay pH 7.4 by UV-HPLC analysis
Format: physicochemical
Details: PBS
Quantity Name: chromatographic logD
Response field accepts a number only; no unit should be typed.

Note chromatographic logD for the compound shown: CC(C)c1ccc(-c2cc(CN3CCN(c4ccccn4)CC3)nn2-c2ccc(F)cc2)cc1
8.76

Note chromatographic logD for the compound shown: C[Si]1(C)CCN(Cc2cc(-c3ccc(C(F)(F)F)cc3)n(-c3ccc(F)cc3)n2)CC1
8.13

Note chromatographic logD for the compound shown: C[Si]1(C)CCN(Cc2cc(-c3ccc(C(F)(F)F)cc3)n(C3CCCCC3)n2)CC1
8.49

Note chromatographic logD for the compound shown: CC(C)c1ccc(-c2cc(CN3CCOCC3)nn2C2CCC2)cc1
7.37

Note chromatographic logD for the compound shown: COC1CCN(Cc2cc(-c3ccc(C(C)C)cc3)n(-c3ccc(F)cc3)n2)CC1
7.31

Note chromatographic logD for the compound shown: Cc1c(CN2CCOCC2)cc(-c2ccc(C(C)C)cc2)n1-c1ccc(F)cc1
8.1

Note chromatographic logD for the compound shown: CC(C)c1ccc(-c2cc(CN3CCOCC3)nn2C2CCCCC2)cc1
8.29

Note chromatographic logD for the compound shown: COC1CCN(Cc2cc(-c3ccc(C(F)(F)F)cc3)n(-c3ccc(F)cc3)n2)CC1
6.67

Note chromatographic logD for the compound shown: CC(C)c1ccc(-c2cc(CN3CC[Si](C)(C)CC3)nn2-c2ccc(F)cc2)cc1
8.82

----------
Provide the reported pIC50 of each item.
Target: Voltage-gated inwardly rectifying potassium channel KCNH2 (Homo sapiens)
Test: Inhibition of human ERG
FYI, pIC50 means -log10 of a concentration in mol per litre.

Note pIC50 for the compound shown: COC1CCN(Cc2cc(-c3ccc(C(F)(F)F)cc3)n(-c3ccc(F)cc3)n2)CC1
5.49

Note pIC50 for the compound shown: CC(C)c1ccc(-c2cc(CN3CC[Si](C)(C)CC3)nn2-c2ccc(F)cc2)cc1
5.70

Note pIC50 for the compound shown: CC(C)c1ccc(-c2cc(CN3CC[Si](C)(C)CC3)nn2C2CCCCC2)cc1
5.10

----------
Provide the reported CC50 at 48 h of each item.
Assay: Cytotoxicity against human HepG2 cells incubated for 48 hrs by CellTiter Glo assay
Assay type: cell-based

Note CC50 at 48 h for the molecule shown: CC(C)c1ccc(-c2cc(CN3CCC(O)CC3)nn2-c2ccc(F)cc2)cc1
20 µM

Note CC50 at 48 h for the molecule shown: COC1CCN(Cc2cc(C)n(C3CCCCC3)n2)CC1
> 100 µM

Note CC50 at 48 h for the molecule shown: CC(C)c1ccc(-c2cc(CN3CCOCC3)nn2C2CCC2)cc1
50 µM

Note CC50 at 48 h for the molecule shown: Cc1c(CN2CCOCC2)nc(-c2ccc(C(C)C)cc2)n1-c1ccc(F)cc1
50.1 µM

Note CC50 at 48 h for the molecule shown: Fc1ccc(-n2nc(CN3CCSCC3)cc2-c2ccc(C(F)(F)F)cc2)cc1
79.4 µM

Note CC50 at 48 h for the molecule shown: CC(C)c1ccc(-c2cc(CN3CCN(C(=O)OC(C)(C)C)CC3)nn2C2CCCCC2)cc1
40 µM

Note CC50 at 48 h for the molecule shown: CC(C)c1ccc(-c2cc(CN3CCCC(O)C3)nn2C(C)C)cc1 (stereo not given)
50 µM

Note CC50 at 48 h for the molecule shown: CC(C)c1ccc(-c2cc(CN3CCN(c4ccccn4)CC3)nn2C2CCCCC2)cc1
40 µM

Note CC50 at 48 h for the molecule shown: FC(F)(F)c1ccc(-c2cc(CN3CCOCC3)nn2C2CCCCC2)cc1
50 µM

Note CC50 at 48 h for the molecule shown: COC1CCN(Cc2cc(-c3ccc(C(C)C)cc3)n(C3CCCOC3)n2)CC1 (stereo not given)
50 µM

----------
Provide the reported IC50 of each item.

Fetch value of IC50 on Voltage-gated inwardly rectifying potassium channel KCNH2 (Homo sapiens, UniProt Q12809) for CC(C)c1ccc(-c2cc(CN3CCOCC3)nn2C2CCCCC2)cc1 .
Sequence (Q12809 whole entry): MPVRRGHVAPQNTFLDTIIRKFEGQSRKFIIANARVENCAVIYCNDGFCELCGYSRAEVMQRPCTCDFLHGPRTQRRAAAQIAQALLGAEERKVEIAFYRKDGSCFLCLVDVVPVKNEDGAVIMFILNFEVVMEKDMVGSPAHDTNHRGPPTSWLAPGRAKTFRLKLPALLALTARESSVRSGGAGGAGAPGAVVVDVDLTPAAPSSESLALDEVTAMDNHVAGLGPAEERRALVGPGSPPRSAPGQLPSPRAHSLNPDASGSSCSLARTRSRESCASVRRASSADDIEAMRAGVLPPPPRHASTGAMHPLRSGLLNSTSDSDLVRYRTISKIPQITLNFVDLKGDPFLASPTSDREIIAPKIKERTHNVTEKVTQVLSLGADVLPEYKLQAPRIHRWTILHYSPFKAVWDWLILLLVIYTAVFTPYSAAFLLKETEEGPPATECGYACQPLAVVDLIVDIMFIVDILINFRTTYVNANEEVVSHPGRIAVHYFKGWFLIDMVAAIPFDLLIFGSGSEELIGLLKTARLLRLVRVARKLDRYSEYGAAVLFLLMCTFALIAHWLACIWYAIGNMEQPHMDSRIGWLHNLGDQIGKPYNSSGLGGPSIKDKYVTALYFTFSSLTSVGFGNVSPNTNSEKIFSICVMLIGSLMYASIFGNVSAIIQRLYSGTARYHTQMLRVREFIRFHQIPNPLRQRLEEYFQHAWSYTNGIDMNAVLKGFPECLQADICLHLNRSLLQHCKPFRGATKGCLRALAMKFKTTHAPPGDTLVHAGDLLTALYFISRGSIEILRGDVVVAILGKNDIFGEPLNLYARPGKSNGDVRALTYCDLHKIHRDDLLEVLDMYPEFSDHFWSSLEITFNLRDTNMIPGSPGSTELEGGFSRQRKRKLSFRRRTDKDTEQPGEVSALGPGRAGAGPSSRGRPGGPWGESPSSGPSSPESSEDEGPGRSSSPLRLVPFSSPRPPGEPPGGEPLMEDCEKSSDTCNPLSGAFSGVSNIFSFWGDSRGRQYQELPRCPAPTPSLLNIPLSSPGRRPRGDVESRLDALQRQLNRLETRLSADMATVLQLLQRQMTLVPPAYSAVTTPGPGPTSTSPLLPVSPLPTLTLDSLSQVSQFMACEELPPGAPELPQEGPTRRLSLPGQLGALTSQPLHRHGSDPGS
> 50 µM

Fetch value of IC50 on Voltage-gated inwardly rectifying potassium channel KCNH2 (Homo sapiens, UniProt Q12809) for CC(C)c1ccc(-c2cc(CN3CCN(c4ccccn4)CC3)nn2-c2ccc(F)cc2)cc1 .
25.1 µM

Fetch value of IC50 on Voltage-gated inwardly rectifying potassium channel KCNH2 (Homo sapiens, UniProt Q12809) for C[Si]1(C)CCN(Cc2cc(-c3ccc(C(F)(F)F)cc3)n(C3CCCCC3)n2)CC1 .
2.5 µM

Fetch value of IC50 on Voltage-gated inwardly rectifying potassium channel KCNH2 (Homo sapiens, UniProt Q12809) for CC(C)c1ccc(-c2cc(CN3CCOCC3)nn2C2CCC2)cc1 .
32 µM

Fetch value of IC50 on Voltage-gated inwardly rectifying potassium channel KCNH2 (Homo sapiens, UniProt Q12809) for COC1CCN(Cc2cc(-c3ccc(C(C)C)cc3)n(-c3ccc(F)cc3)n2)CC1 .
6.31 µM
